# measuredTarget: panel of more than 300 wild-type and mutant kinases (313 kinase panel) (Homo sapiens, UniProt Q99683)
# Sequence (Q99683 whole entry, change not shown): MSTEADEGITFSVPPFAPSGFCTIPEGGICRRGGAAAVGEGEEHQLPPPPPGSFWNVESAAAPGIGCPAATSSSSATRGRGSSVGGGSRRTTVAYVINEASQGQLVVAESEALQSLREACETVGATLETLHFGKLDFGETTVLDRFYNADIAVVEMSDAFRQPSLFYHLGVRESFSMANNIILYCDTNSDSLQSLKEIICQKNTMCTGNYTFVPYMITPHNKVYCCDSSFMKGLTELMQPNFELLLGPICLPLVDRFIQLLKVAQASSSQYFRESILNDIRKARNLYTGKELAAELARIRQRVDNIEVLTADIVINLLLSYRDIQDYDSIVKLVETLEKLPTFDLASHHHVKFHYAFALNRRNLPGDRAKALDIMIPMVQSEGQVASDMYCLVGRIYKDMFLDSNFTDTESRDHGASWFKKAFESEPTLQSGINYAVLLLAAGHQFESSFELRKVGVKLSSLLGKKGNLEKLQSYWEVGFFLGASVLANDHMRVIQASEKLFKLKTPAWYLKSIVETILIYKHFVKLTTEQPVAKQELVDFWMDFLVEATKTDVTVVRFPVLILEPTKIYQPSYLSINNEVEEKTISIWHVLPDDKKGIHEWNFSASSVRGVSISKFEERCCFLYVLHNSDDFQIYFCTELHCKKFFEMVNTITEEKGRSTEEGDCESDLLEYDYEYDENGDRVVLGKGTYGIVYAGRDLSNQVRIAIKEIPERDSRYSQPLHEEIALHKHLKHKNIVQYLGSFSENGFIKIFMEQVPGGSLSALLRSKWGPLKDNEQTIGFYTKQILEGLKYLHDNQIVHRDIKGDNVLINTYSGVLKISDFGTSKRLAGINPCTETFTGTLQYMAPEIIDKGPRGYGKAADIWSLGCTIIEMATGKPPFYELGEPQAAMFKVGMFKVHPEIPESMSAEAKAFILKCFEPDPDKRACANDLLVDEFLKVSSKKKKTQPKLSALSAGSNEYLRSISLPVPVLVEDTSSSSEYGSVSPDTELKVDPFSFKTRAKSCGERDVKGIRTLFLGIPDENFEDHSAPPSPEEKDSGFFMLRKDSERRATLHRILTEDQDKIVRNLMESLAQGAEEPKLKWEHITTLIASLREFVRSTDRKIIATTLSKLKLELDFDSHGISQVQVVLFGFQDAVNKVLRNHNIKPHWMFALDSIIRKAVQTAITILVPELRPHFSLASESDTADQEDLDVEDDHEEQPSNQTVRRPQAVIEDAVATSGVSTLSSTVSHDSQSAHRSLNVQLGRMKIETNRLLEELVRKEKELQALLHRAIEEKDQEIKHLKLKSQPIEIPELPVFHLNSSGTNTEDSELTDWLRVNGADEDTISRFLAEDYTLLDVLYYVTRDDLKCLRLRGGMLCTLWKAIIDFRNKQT
# assayProcedure: Kinase profiling in a biochemical assay panel (mobility shift assays and ELISA), %-inhibition at 1 μM; selectivity entropy
# measurementSetup: kinase MAP3K5; compound at 1 μM
observable: %-inhibition of MAP3K5 (%)
Hi! Could you send only the number? It should be in %, unit omitted.

• Cc1ccc(Nc2nccc(N(C)c3ccc4c(C)n(C)nc4c3)n2)cc1S(N)(=O)=O [pazopanib] = 18

Q: Would you kindly share the measured %-inhibition of MAP3K5 for CC(=O)Nc1cccc(-n2c(=O)n(C3CC3)c(=O)c3c(Nc4ccc(I)cc4F)n(C)c(=O)c(C)c32)c1 [trametinib] ?
Ans: 17

Q: Look at this compound and give its reported %-inhibition of MAP3K5. CS(=O)(=O)CCNCc1ccc(-c2ccc3ncnc(Nc4ccc(OCc5cccc(F)c5)c(Cl)c4)c3c2)o1 [lapatinib]
Ans: 6

Q: Quick one: %-inhibition of MAP3K5 of CO[C@H]1C[C@@H]2CC[C@@H](C)[C@@](O)(O2)C(=O)C(=O)N2CCCC[C@H]2C(=O)O[C@H]([C@H](C)C[C@@H]2CC[C@@H](OCCO)[C@H](OC)C2)CC(=O)[C@H](C)/C=C(\C)[C@@H](O)[C@@H](OC)C(=O)[C@H](C)C[C@H](C)/C=C/C=C/C=C/1C [everolimus] ?
Ans: 2.56

Q: Give the measured %-inhibition of MAP3K5 of CCCS(=O)(=O)Nc1ccc(F)c(C(=O)c2c[nH]c3ncc(-c4ccc(Cl)cc4)cc23)c1F [vemurafenib] .
Ans: 13

Q: Any idea what its %-inhibition of MAP3K5 is? The compound is N#CC[C@H](C1CCCC1)n1cc(-c2ncnc3[nH]ccc23)cn1 [ruxolitinib]
Ans: 6

Q: Using the record for O=S(=O)(c1cccc2cnccc12)N1CCCNCC1 [fasudil] , report its %-inhibition of MAP3K5.
Ans: -15

====

# measuredTarget: panel of more than 300 wild-type and mutant kinases (313 kinase panel) (Homo sapiens)
# assayProcedure: Kinase profiling in a biochemical assay panel (mobility shift assays and ELISA), %-inhibition at 1 μM; selectivity entropy
# measurementSetup: kinase IKKβ; compound at 1 μM
%-inhibition of IKKβ listing for selected molecules.
Enter your answer as a number in %; do not include the unit.

• CC(=O)Nc1cccc(-n2c(=O)n(C3CC3)c(=O)c3c(Nc4ccc(I)cc4F)n(C)c(=O)c(C)c32)c1 [trametinib] = 0.741
• CNC(=O)c1cc(Oc2ccc(NC(=O)Nc3ccc(Cl)c(C(F)(F)F)c3)c(F)c2)ccn1 [regorafenib] = -4.61
• Cc1cn(-c2cc(NC(=O)c3ccc(C)c(Nc4nccc(-c5cccnc5)n4)c3)cc(C(F)(F)F)c2)cn1 [nilotinib] = -1.78

// next item, %-inhibition of IKKβ requested
Q: // returns reported %-inhibition of IKKβ for input COc1cc2c(Nc3ccc(Br)cc3F)ncnc2cc1OCC1CCN(C)CC1 [vandetanib]
Ans: -4.53

====

# measuredTarget: panel of more than 300 wild-type and mutant kinases (313 kinase panel) (Homo sapiens, UniProt P06241)
# Sequence (P06241 whole entry, change not shown): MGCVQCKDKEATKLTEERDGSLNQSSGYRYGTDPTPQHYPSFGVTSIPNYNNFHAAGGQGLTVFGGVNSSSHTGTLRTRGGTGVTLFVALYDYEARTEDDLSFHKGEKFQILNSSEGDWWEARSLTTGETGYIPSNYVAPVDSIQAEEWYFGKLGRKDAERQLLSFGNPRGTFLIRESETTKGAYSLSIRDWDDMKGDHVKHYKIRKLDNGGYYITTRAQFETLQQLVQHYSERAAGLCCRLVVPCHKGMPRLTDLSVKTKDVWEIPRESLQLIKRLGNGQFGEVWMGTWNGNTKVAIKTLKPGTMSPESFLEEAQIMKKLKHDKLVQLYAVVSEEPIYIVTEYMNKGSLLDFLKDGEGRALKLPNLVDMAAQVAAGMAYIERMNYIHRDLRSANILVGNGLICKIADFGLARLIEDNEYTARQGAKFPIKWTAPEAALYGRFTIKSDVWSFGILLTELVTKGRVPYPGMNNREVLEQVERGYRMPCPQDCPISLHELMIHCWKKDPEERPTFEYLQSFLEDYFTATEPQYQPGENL
# assayProcedure: Kinase profiling in a biochemical assay panel (mobility shift assays and ELISA), %-inhibition at 1 μM; selectivity entropy
# measurementSetup: kinase FYN; compound at 1 μM
observable: %-inhibition of FYN
Number plus unit, in that order.

// worked examples, %-inhibition of FYN included
• Cc1cn(-c2cc(NC(=O)c3ccc(C)c(Nc4nccc(-c5cccnc5)n4)c3)cc(C(F)(F)F)c2)cn1 = 59%
• CNC(=O)c1cc(Oc2ccc(NC(=O)Nc3ccc(Cl)c(C(F)(F)F)c3)c(F)c2)ccn1 = 55%
• N#CC[C@H](C1CCCC1)n1cc(-c2ncnc3[nH]ccc23)cn1 = 11%
• COc1cc2c(Nc3ccc(Br)cc3F)ncnc2cc1OCC1CCN(C)CC1 = 88%

Q: Could you share which %-inhibition of FYN value was measured for `CS(=O)(=O)CCNCc1ccc(-c2ccc3ncnc(Nc4ccc(OCc5cccc(F)c5)c(Cl)c4)c3c2)o1` ?
Ans: 1.29%

Q: Form field: reported %-inhibition of FYN of `CO[C@H]1C[C@@H]2CC[C@@H](C)[C@@](O)(O2)C(=O)C(=O)N2CCCC[C@H]2C(=O)O[C@H]([C@H](C)C[C@@H]2CC[C@@H](OC(=O)C(C)(CO)CO)[C@H](OC)C2)CC(=O)[C@H](C)/C=C(\C)[C@@H](O)[C@@H](OC)C(=O)[C@H](C)C[C@H](C)/C=C/C=C/C=C/1C`
Ans: -1.39%

Q: # input compound: `O=S(=O)(c1cccc2cnccc12)N1CCCNCC1` ; wanted: its %-inhibition of FYN
Ans: 8.5%

Q: Quick check: %-inhibition of FYN of `CCCS(=O)(=O)Nc1ccc(F)c(C(=O)c2c[nH]c3ncc(-c4ccc(Cl)cc4)cc23)c1F` ?
Ans: 81%

Q: So what does the record say about %-inhibition of FYN for `Cc1ccc(C(=O)Nc2ccc(CN3CCN(C)CC3)c(C(F)(F)F)c2)cc1C#Cc1cnc2cccnn12` ?
Ans: 101%

Q: Which measured %-inhibition of FYN value corresponds to `CCN(CC)CCNC(=O)c1c(C)[nH]c(/C=C2\C(=O)Nc3ccc(F)cc32)c1C` ?
Ans: 88%
